biological target: FK506-binding protein 12 (human, UniProt P62942 1-108); assay: fluorescence polarisation
Sequence (P62942 whole entry): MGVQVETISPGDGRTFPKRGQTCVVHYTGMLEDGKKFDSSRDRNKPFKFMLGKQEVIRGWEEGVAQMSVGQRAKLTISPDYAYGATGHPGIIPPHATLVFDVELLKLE
Non-standard residues stand in square brackets, D forms with d. *: point of attachment. Dkb = 3,3-dimethyl-2-ketobutyryl, CC(C)(C)C(=O)C(=O)*; d(β3hF) = N[C@@H](CC(=O)O)Cc1ccccc1; Pip = O=C(O)[C@@H]1CCCCN1
Property Measured: IC50 (µM)
Kindly provide the numeric value in µM only, without the unit symbol.

Binder	IC50 (µM)
cyclo(AA[dA][Dkb][Pip][dI]Q) (also: Dkb 4 joined by ester to 3) [rapalog 2i]	266

Here's the next entry for you.
GET /value?item= cyclo(AAF[Dkb][Pip][d(β3hF)]Q) (also: Dkb 4 joined by ester to 3) [rapalog 2k] &field=IC50 returns 18
